Test system: MS2 coat protein
Assay: apparent KD of MS2 coat protein; higher = weaker reporter binding
Conditions: Eterna round: R107; input ligand: theophylline 20 uM
Classify as follows. Reported apparent KD of MS2 coat protein greater than or equal to 60 nM: 1. Reported apparent KD of MS2 coat protein below: -1.

1. AUCGCACCUGGUGAUACCAGCGUUUGCUCGCGACAUGAGGAUCACCCAUGUGGCCAGUGAUGCCCUUGGCAGCAUGGUCGGUGCA [Same State - Theophylline B (Freestyle 27)] ... 1
2. AAUUAUCAGUCGGCCGCCACUGACACAUGAGGAUCACCCAUGUAAUAUGGGUAAAAUUAACUGAACAGGACCGGGACAAAUGCUA [JR_SSTryptoB_Sub021] ... 1
3. UGGUAUGUAGGAAGGAGCGCAUACUUCACAUGAGGAUCACCCAUGUCAAGACGUGAGUCAGUGCAGGUAGGUCGCCUAGUUAUGA [Same State - Arginine B (Freestyle 21)] ... -1
4. AUACAUGAGGAUCACCCAUGUAUAGUUGAAGGAGCGACCAGAGGGUCAGGUAGGUCGCAACACAUGAGGAUCACCCAUGUAUCGA [DOUBLE!!! :-D #7] ... -1
5. CCAUAUGUAACUGAUACCAGUGUACUGACAUGAGGAUCACCCAUGUUGGGUUUUGUUGUACACCCUUGGCAGCAGAAUCAUAUGG [AstrosExyTheB#17] ... 1

// inclusive: apparent KD of MS2 coat protein at least 60 nM? input: GUAUAGUCUCGAAGGAGCGUCACAUGAGGAUCACCCAUGUACAUGAGGAUCACCCAUGUGUGGCAGGUAGGUCGCGAGCUAUACC [Exclusion Arginine B GF8] 1

Could you do the same for ACAUGAGGAUCACCCAUGUUCCUCAUUGAUACCAGUGAAUUUAGACGCCCUUGGCAGCGAGUUUUUUUAUAAGAUGUUUUUUUUU [6.H] , please? 1

Also check AAGGAACAUGAGGAUCACCCAUGUACCGAAGGAGCGGCAGAGAUGCCAGGUAGGUCGCGGUACUUGCCGGGUCAUUCAUGCAGAG [Arraiste] -1

Similarly, GACUAUAUGAUAUGUCAGAAAUCCUCGAAACGAGGACCGGUACGGCCGCCACUCGAGUGAUCAACAUGAGGAUCACCCAUGUAAA [Tryp A Ex t1] ? -1

Moving on to the next sequence: UUGAUCAUAUAUGAAAACAUAUAUGCAGAAGGAGCGUGAUAAAACACAGGUAGGUCGCUGAAGGGAACAUGAGGAUCACCCAUGU [AstrosSSArgA#3] -1

Consider next the sequence AGAGUCAGACAAAAGUCUGGCUCAGCCGAAGGAGCGUCCGAAAGGACAGGUAGGUCGCGGUUACCUGAGGAUCACCCGGGUUCCU [ArgAS 25 #OpenEnded #AlternativeMS2] in the same way. 1

---

System: MS2 coat protein
Assay: apparent KD of MS2 coat protein; higher = weaker reporter binding
Settings: Eterna round: R107; input ligand: tryptophan 2.4 mM
apparent KD of MS2 coat protein values by entry
Give a bare numeral; the unit nM is implied.

1) AUGUCGUUGAAUACAGCGGCAUGGUGUGAUACCAGAAUGAUCAAAUUCCCUUGGCAGCAUCACAUGAGGAUCACCCAUGUUAAGG [SSTheo A #17] ... 46.4

# returns recorded apparent KD of MS2 coat protein (system: MS2 coat protein) for "GGACUAACCAGAAGGAGCGACACGCAGAAACUGCAAAUUCCUCUGCACGAGGAUCACCCGUGUCAGGUAGGUCGCUGGUUAGUCG" 26.9

Continue with GUGGAGACCUCGGCCGCCACUCUCCAUGAGGAUCUCCCAUGUAACAUGAGGAUCACCCAUGUGCUGAGGACCGGGAGGUCCUGAA [Same State Tryptophan B GF 19] 9.55

---

Test system: K4 kissing-loop RNA reporter;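 also: bound reporter read as fluorescence of individual clusters on recovered sequencing chips by microscopy, with normalized cluster intensities fitted with a binding model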
Test: apparent KD of K4 kissing-loop reporter; higher = weaker reporter binding
Settings: Eterna round: R107; input ligand: none
value-type: apparent KD of K4 kissing-loop reporter
Enter the number, and then the unit.

Answered examples (3):
1. AAGUGAUGUUGUAGUGAUGUUGUGAUGUUGCAGGAUAUAUAGUGAUGUAGAAGGGUAUGUUCAGUUUUUUUUUUUGAGUGUUGAU [szxmullin] ... 0.0628 µM
2. AGUUCUUGCCGAAGGAGCGAGGCAGAGUGAUGUUCUGCAAGAGGUCGAAAGACCUCUCUGCCUCAGGUAGGUCGCGGCAUGAACA [Omei KL Arginine B Exc A v3] ... 0.483 µM
3. UAUUGAUUGUCAGGAUAUCGUAAACGAGUGAUGUUCGUAUAUUGACGAUAGUCAAUUCUAUCUGAACGAGAAGGGACAUUAUUUA [JR_SSFMNB_Sub009] ... 0.389 µM

Any idea what apparent KD of K4 kissing-loop reporter was measured for GCAAAACAAACGUAGAGUGGAACACAGAGACGAGGACCGGUACGGCCGCCACUCGACGAGGUUUUCAGUGAUGUUGAAAAUUUAG [Exclusion Tryptophan A GF2] ? 0.125 µM

Param item: GUAAGACCGGGACUCCAGUGAUGUUGGAGGCAGGAUAUCCAGUCGAGGAGAAGGGCCAGGGAUAUCGAGCUGCUCGGUUUGUAGU [Argeis] 0.0936 µM

---

Tested on: MS2 coat protein
Assay: apparent KD of MS2 coat protein; designed switch direction (-1 OFF switch, 1 ON switch): 1; higher = weaker reporter binding
Details: input ligand: microRNA oligo, concentration not stated
value-type: apparent KD of MS2 coat protein

Example cases with answers are listed next.
1) AUAUUCUUCCGCGACACCCACAUGAGGAUCACCCAUGUUGAACAGGAUAUGUAGUUCAUCUGAACACAGAAGGGUUAAAGGAAG [Eternabot solution 28] (Eterna round: R96, puzzle: Same State NG 3) ... 16.5 nM
2) GUGGUCAGACAUGAGGAUCACCCAUGUGGAAUAAAUAACAACUAGGAUAUAUAAUAUAGGAUAUAAUAGAAGGAGUGAUUGGUG (Eterna round: R96, puzzle: Same State NG 3) ... 121 nM

Reported apparent KD of MS2 coat protein for CCGUAAAUGGAAGGAUAUGGAGCCUUAUUGGCUCCAGAAGGUUCAAUAACAUGAGGAUCACCCAUGUCGGCGGUCAAUAGACCG [Eli NG1ss - 79] (Eterna round: R96, puzzle: Same State NG 1) : what is it? 33.7 nM

---

Tested on: MS2 coat protein
Experiment: apparent KD of MS2 coat protein; designed switch direction (-1 OFF switch, 1 ON switch): -1; higher = weaker reporter binding
Details: input ligand: none
# cutoff 200 nM applies to apparent KD of MS2 coat protein; >= gives Criterion met, < gives Criterion not met

1. AGUUGUUGCGCAGGAUAUGAGGAUCACCCAUAGAAGGAUAUCGAAAGAGAAGGUCUGAGGAUUACCCAGAAGGGCGUGAUGACA [pwkr exNG2 2xF5 2xFMN.8] (Eterna round: R96, puzzle: Exclusion NG 2) ... Criterion not met
2. UGAGUGCUGCGAGGAUAUACAUGAGGAUCACCCAUGUGGAUGUCUGAGGCAAAGCCUCAGACAAUGUAGAAGGCGCAGUACUCU [Mat - Exclusion NG 2 - Mod of JL - D55] (Eterna round: R96, puzzle: Exclusion NG 2) ... Criterion not met
3. GCCGAAAAUGUGAGGAUAUACCUAUGGAUACAUAGGUAGAAGGCACAUGAGGAUCACCCAUGUCCAAUAACGGC [Eli bmx4 4.25] (Eterna round: R97, puzzle: Brourd's mod of Exclusion 4) ... Criterion met
4. UUUUAGUCAGGAUAUACAUGAGGAUCACCCAUGUAAAAUUUUAAUUUAAUUUGAAGGUGUAGAAGGGACAAUUU [Ex3 #39] (Eterna round: R97, puzzle: Exclusion 3) ... Criterion not met
5. GAGUUACAUGAGGAUCACCCAUGUGAGGAUAUGAGUCAGUCACGGUGACGUGGCUGACUCAGAAGGCACAAUGG [Mat - Exclusion 1 - JL Mod - D46] (Eterna round: R97, puzzle: Exclusion 1) ... Criterion met
6. UCAGCUUGUGUCAGGAUAUCCAGUCCGACGGGAGAGGAGAAGGGACAUGAGGAUCACCCAUGUAGGCGCCCUAC [Soerrecege] (Eterna round: R97, puzzle: Brourd's mod of Exclusion 4) ... Criterion met
7. GCUGCGCGAGGAUAUGCGGUUUGCGCUGUGGCCCGUGGCGUACAUGAGGAUCACCCAUGUAGAAGGCGUGUGGG [Apr-15 SS2-55] (Eterna round: R96, puzzle: Exclusion 2) ... Criterion not met
8. UUUUUAUAUGAAGGAUAUACUUAACAUGAGGAUCACCCAUGUGGUGUUGUGAGUGAGUGAGUUUAGUAGAAGGUCAAUUAUUUC [JMF's solution 17] (Eterna round: R96, puzzle: Exclusion NG 2) ... Criterion met

Then there is this sequence:
Check the entry AGGUGUAGAGGAUAUCGAGUCCUUUACAUGAGGAUCACCCAUGUCCUGGGCACCCAGGACCGAGAAGGCUACACCA [Omei Ex5 D32] (Eterna round: R97, puzzle: Exclusion 5) : does apparent KD of MS2 coat protein equal or exceed 200 nM? Criterion met
